Test system: Spiral organ of cochlea
Experiment: Protection against cisplatin-induced toxicity in P3 mouse cochlear explants assessed as increase in outer hair cell count incubated for 24 hrs by phalloidin staining based confocal microscopy
Assay type: functional, tissue-based
pEC50: −log10 of the molar value.
Rule: pEC50 of 6 or more gives true (1); anything lower gives false (0).

compound="COc1ccc2c(c1)/C(=C/c1cnc[nH]1)C(=O)N2 [SU-9516]" category_label="false (0)"
compound="CC[C@H](CO)Nc1nc(NCc2ccccc2O)c2ncn(C(C)C)c2n1 [OLOMOUCINE II]" category_label="false (0)"
compound=N#Cc1ccc2c(c1)/C(=C1/C=CC(CN3CCOCC3)=CN1)C(=O)N2 category_label="false (0)"

Kindly consider the entry below.
Query :: Does the reported pEC50 for O=C1Cc2c([nH]c3ccc(Br)cc23)-c2ccccc2N1 [KENPAULLONE] fall at or above the 6 mark?
Result :: true (1)

====

Examples of compounds with documented pIC50 follow.
Target: CDK2/Cyclin A2 (Homo sapiens)
Test: Inhibition of C-terminal His6-tagged human full length CDK2/N-terminal GST-tagged human full length Cyclin A using histone H1 and [gamma-32P]-ATP incubated for 30 mins by phosphorimage based assay
Assay type: protein-complex assay
pIC50: −log10 of the molar value.

Example entries begin here.
given_smiles=Cn1cc(NC(=O)c2c(Cl)cccc2Cl)c(C(=O)NC2CCN(C(=O)c3c(Cl)cccc3Cl)CC2)n1 observable=pIC50 recorded_result="< 5.00"
given_smiles=CCn1cc(NC(=O)c2ccc(Cl)cc2Cl)c(C(=O)Nc2ccccc2)n1 observable=pIC50 recorded_result="< 5.00"
given_smiles=CCn1cc(NC(=O)c2ccc(COCC(F)(F)F)cc2)c(C(=O)NCC(C)C)n1 observable=pIC50 recorded_result="< 5.00"
given_smiles=CCn1cc(NC(=O)c2ccc(Cn3cc(Cl)cn3)cc2)c(C(=O)NC2CCCC2)n1 observable=pIC50 recorded_result="< 5.00"

Lab note: next compound to report on.
Query :: Write down pIC50 measured for item O=C(NC1CCN(C(=O)c2c(Cl)cccc2Cl)CC1)c1n[nH]cc1NC(=O)c1c(Cl)cccc1Cl
Result :: 6.12

====

System: Spiral organ of cochlea
Assay: Protection against cisplatin-induced toxicity in P3 mouse cochlear explants assessed as increase in outer hair cell count at 150 nM incubated for 24 hrs by phalloidin staining based confocal microscopy
Type: functional, tissue-based
Calls of active or inactive are those of the source. No cut-off for these calls is given here.
Pick one and only one: YES (active), NO (inactive)

For orientation, consider the following solved cases.
given_smiles=O=C(NCC1CC1)c1n[nH]cc1NC(=O)c1c(F)cccc1F assay_target="Spiral organ of cochlea" category_label=NO
given_smiles=O=C(N[C@H]1CC[C@H](O)CC1)c1n[nH]cc1NC(=O)c1c(F)cccc1F assay_target="Spiral organ of cochlea" category_label=YES
given_smiles=O=C(Nc1ccc(F)cc1)c1n[nH]cc1NC(=O)c1c(F)cccc1F assay_target="Spiral organ of cochlea" category_label=NO

Kindly consider the entry below.
Query :: Kindly provide the recorded test outcome for the following compound: O=C(NC1CCN(C(=O)c2c(Cl)cccc2Cl)CC1)c1n[nH]cc1NC(=O)c1c(Cl)cccc1Cl
Result :: NO
